- Test system: Mus musculus
- ASSAY_OVERVIEW: Compound was tested for analgesic potency using writhing test in mouse after sc administration of compound
- Type: functional
MEASUREMENT_TYPE: ED50 (µM/kg)
Output spec: scalar in µM/kg, unitless text.

Known results for molecules:
CC1(c2cccc(O)c2)CCCN(CCc2ccccc2)C1 (single isomer, unassigned; (-))    18.38
C=CCN1CCCC(C)(c2cccc(O)c2)C1 (single isomer, unassigned; (+))    160.94
CN1CCCC(C)(c2cccc(O)c2)C1 (stereo in doubt; (+)-7a)    41.36

Moving on to the next molecule.
# input // query ED50 value for entry C=CCN1CCCC(C)(c2cccc(O)c2)C1 (single isomer, unassigned; (-))
# output 14.34

----------
- STUDY_TARGET: Mu-type opioid receptor (Rattus norvegicus)
- Sequence (P33535 whole entry): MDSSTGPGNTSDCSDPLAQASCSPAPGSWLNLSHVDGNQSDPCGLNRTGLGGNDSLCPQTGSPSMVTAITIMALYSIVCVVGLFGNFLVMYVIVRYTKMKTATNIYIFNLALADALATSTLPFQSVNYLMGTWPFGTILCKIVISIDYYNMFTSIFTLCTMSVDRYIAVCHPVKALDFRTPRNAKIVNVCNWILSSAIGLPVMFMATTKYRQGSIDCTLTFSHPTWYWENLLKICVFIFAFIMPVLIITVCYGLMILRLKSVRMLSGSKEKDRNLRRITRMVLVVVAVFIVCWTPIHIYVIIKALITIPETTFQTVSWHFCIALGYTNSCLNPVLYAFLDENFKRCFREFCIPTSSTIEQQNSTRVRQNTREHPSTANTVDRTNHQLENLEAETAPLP
- ASSAY_OVERVIEW: Opioid receptor mu 1 affinity against the receptor site model site 1 (mu1) by using the curve-fitting program LIGAND
MEASUREMENT_TYPE: pKd
Worth noting: pKd values are minus log10 of concentrations stated in mol/L.

Known results for compounds:
CN1CCCC(C)(c2cccc(O)c2)C1 (stereo in doubt; (+)-7a)    6.88
CC1(c2cccc(O)c2)CCCN(CCc2ccccc2)C1 (single isomer, unassigned; (-))    7.89
C=CCN1CCCC(C)(c2cccc(O)c2)C1 (single isomer, unassigned; (-))    7.62

Moving on to the next compound.
# input // query pKd value for entry CC1(c2cccc(O)c2)CCCN(CCc2ccccc2)C1 (stereo in doubt; (+)-7d)
# output 8.30
